# tested system: Calmodulin-1 (Homo sapiens)
# experimental protocol: small molecules binding calmodulin-1 with EGTA – biochemical, small-molecule microarray, Cy5-labelled CALM1, profiling panel (AID 1111);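 also: labelled calmodulin applied in Tris saline Tween buffer holding calcium plus EGTA and DTT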
# run conditions: Cy5-CALM1 binding fluorescence, higher = more signal
readout name: composite z-score
Output spec: single numeric token, no unit.

Ask: Lab note: need composite z-score for "NC(=O)[C@@]1(Cc2ccccc2)COC(c2ccc(OCCCO)cc2)=N1" on Calmodulin-1 (Homo sapiens), anyone have it?
Reply: 0.435

Ask: API: value(readout=composite z-score, system=Calmodulin-1 (Homo sapiens)) for record "CO[C@H]1O[C@H](CO)[C@@H](OC(=O)CCc2ccccc2)[C@@H]2OC(=O)[C@@H](Cc3ccccc3)C/C=C/C[C@H](Cc3ccccc3)C(=O)O[C@@H]12"
Reply: 0.485

Ask: Query the reported composite z-score for Calmodulin-1 (Homo sapiens); item: "O=C1O[C@H](c2ccccc2)[C@H](c2ccccc2)N2[C@H]1[C@@H](C(=O)O)[C@]1(C(=O)Nc3ccc(C#CCCO)cc31)[C@H]2c1ccccc1OCCO"
Reply: 0.4

Ask: Tell me reported composite z-score for O=C1C2C=CC(C(O)c3ccco3)N(Nc3ccccc3F)C2C(=O)N1c1ccccc1 (configuration not stated) , tested with Calmodulin-1 (Homo sapiens).
Reply: 0.175

Ask: Lab note: need composite z-score for CCCCN1CC=CC23O[C@@H]4/C=C\CCCOC(=O)C4[C@H]2C(=O)N(CCO)[C@@H]3C1=O (some centres not stated) on Calmodulin-1 (Homo sapiens), anyone have it?
Reply: -0.343

Ask: Notebook entry, Calmodulin-1 (Homo sapiens) assay: composite z-score of CCCCCCCCCC(O)C1C=CC2C(=O)N(c3ccccc3)C(=O)C2N1Nc1cc(OC)c(OC)c(OC)c1 (configuration not stated) = ?
Reply: 1.01

Ask: GET /values?readout=composite z-score&system=Calmodulin-1 (Homo sapiens)&item= "NCCCCCNC(=O)[C@H]1C[C@H]2C(=O)N3CCC[C@H]3C(=O)N2[C@H]1c1cccc(OCCO)c1"
Reply: 1.35

Ask: Please provide the recorded composite z-score for "C=C[C@@H](OC)[C@H](OC(=O)Nc1ccc(OC)cc1)c1ccc(O)c(F)c1" , tested on Calmodulin-1 (Homo sapiens).
Reply: -1.84

Ask: Short answer please: composite z-score, Calmodulin-1 (Homo sapiens), entry "CCCC=C(CCC)[C@@H](NP(=O)(c1ccccc1)c1ccccc1)c1ccc(-c2ccccc2)cc1"
Reply: 0.877

Ask: Fill in the recorded composite z-score for this compound, with Calmodulin-1 (Homo sapiens) as test system: CC1CC/C=C\[C@H]2OC34C=CCN(Cc5ccccc5)C(=O)[C@H]3N(C(CO)C(C)C)C(=O)[C@@H]4C2C(=O)O1 (some centres not stated)
Reply: -0.862

Ask: Record "CCCCC(=C=CC[C@H](O)c1ccc(OCCO)cc1)CCO" : what is its composite z-score with Calmodulin-1 (Homo sapiens)?
Reply: -0.333

Ask: # get_value(readout= composite z-score, system= Calmodulin-1 (Homo sapiens)) for C[C@@H]1NC(=O)[C@@H](Cc2ccccc2)NC(=O)[C@@]23C(=O)N[C@@H](Cc4ccccc4)C2[C@H](C)[C@@]2(C)O[C@H]2C3/C=C/C/C=C\CNC1=O (some centres not stated)
Reply: -0.744

Ask: Kindly state the measured composite z-score obtained for "C=C[C@H]1C(C(=O)OCC)=CC[C@@H](c2ccccc2)N1S(=O)(=O)c1ccc(C)cc1" with Calmodulin-1 (Homo sapiens).
Reply: 0.577

Ask: Lookup: composite z-score / Calmodulin-1 (Homo sapiens) / "COCCCNC(=O)[C@@]1(Sc2ccc(C)cc2)CC(=O)N(C2Cc3ccccc3C2)[C@@H]1c1ccc(CO)cc1"
Reply: -0.176

Ask: What value of composite z-score on Calmodulin-1 (Homo sapiens) does "COC(=O)c1c(CC[C@@H](CO)NC(=O)N2CCC[C@H]2Cn2cc(C3(O)CCCCC3)nn2)oc(C(C)=O)c1C(=O)OC" have?
Reply: 0.624

Ask: Give Calmodulin-1 (Homo sapiens) composite z-score for CC(C)C(CO)N1C(=O)[C@@H]2C3C(=O)OCCC/C=C\[C@H]3OC23C=CCN(Cn2nnc4ccccc42)C(=O)[C@@H]13 (some centres not stated)
Reply: -0.42

Ask: Please state recorded composite z-score (tested on Calmodulin-1 (Homo sapiens)) of "C=C(/C(=C/C[C@H](OC(C)=O)c1ccc(CO)o1)c1cnc2ccccc2c1)C(C)C"
Reply: 1.4

Ask: Reported composite z-score for Calmodulin-1 (Homo sapiens), given "CO[C@H]1O[C@H](CO)[C@@H](OC(=O)Nc2ccccc2)[C@H](OC(=O)c2cc3ccccc3[nH]2)[C@H]1OC(=O)c1cc2ccccc2[nH]1" ?
Reply: 0.204

Ask: Find the measured composite z-score: item CC(CO)N1C(=O)[C@]2(C)C3C(=O)OCCC/C=C\[C@H]3OC23C=CCN(c2ccc(Cl)cc2)C(=O)[C@@H]13 (some centres not stated) , target or system Calmodulin-1 (Homo sapiens).
Reply: -0.275

Ask: So what composite z-score did CCCCC(CC)C(O)C1C=CC2C(=O)N(C)C(=O)C2N1Nc1ccccc1 (configuration not stated) get with Calmodulin-1 (Homo sapiens)?
Reply: 1.29

Ask: Calmodulin-1 (Homo sapiens) / composite z-score / "COc1ccc(C#Cc2ccc3c(c2)[C@]2(C(=O)N3)[C@H](C(=O)O)[C@H]3C(=O)O[C@H](c4ccccc4)[C@H](c4ccccc4)N3[C@@H]2c2ccc(O)cc2)cc1" : value?
Reply: 0.695

Ask: Recall the recorded composite z-score for "CCOC(=O)C1=C[C@@H](C(C)C)N(S(=O)(=O)c2ccc(C)cc2)[C@H]1c1ccc(C(F)(F)F)cc1" with Calmodulin-1 (Homo sapiens) and state it.
Reply: 1.07

Ask: Can you look up composite z-score on Calmodulin-1 (Homo sapiens) for "C=C(/C(=C/C[C@H](OC(=O)c1ccncc1)c1ccc(CO)o1)c1cnc2ccccc2c1)C(C)C" ?
Reply: 0.544

Ask: Find the measured composite z-score: item CN(C)c1ccc(C(O)C2C=CC3C(=O)NC(=O)C3N2Nc2ccccn2)cc1 (configuration not stated) , target or system Calmodulin-1 (Homo sapiens).
Reply: -0.365

Ask: Which composite z-score is reported with Calmodulin-1 (Homo sapiens) for this entry: "CC#CCO[Si](C#Cc1ccccc1)(C(C)C)C(C)C" ?
Reply: -0.0874

Ask: Hello, I am looking for reported composite z-score with Calmodulin-1 (Homo sapiens) for C=CCC(OC(C)=O)[C@@H]1[C@@H](N(Cc2ccc(-c3ccccc3)cc2)C(=O)c2ccc(-c3ccccc3)cc2)c2cc(OCCCO)ccc2N1C(=O)c1ccc2ccccc2c1 (some centres not stated) . Could you help?
Reply: 0.493

Ask: Give Calmodulin-1 (Homo sapiens) composite z-score for "COC(=O)[C@@]1(Cc2ccc(OC)cc2)[C@H]2c3cc(C(=O)N(C)C)n(Cc4ccc(C)o4)c3C[C@H]2CN1C(=O)c1ccccc1"
Reply: 0.372

Ask: Short answer please: composite z-score, Calmodulin-1 (Homo sapiens), entry CCCC1(C(=O)OC)C=C2C(=C(C)C(=O)C2C)CN1 (configuration not stated)
Reply: -0.119

Ask: Kindly state the measured composite z-score obtained for "CCCC[C@@H](O)C1=C(COC)C[C@H]2C(=O)N(C)C(=O)[C@H]2[C@H]1CO" with Calmodulin-1 (Homo sapiens).
Reply: -0.419

Ask: Form field: composite z-score recorded for "CN(C)CCCCCCNC(=O)[C@@H]1C[C@@H]2C(=O)N3CCC[C@H]3C(=O)N2[C@@H]1c1cccc(OCCO)c1" with Calmodulin-1 (Homo sapiens) (enter value)
Reply: -0.215

Ask: Lookup: composite z-score / Calmodulin-1 (Homo sapiens) / "CC(C)[Si](C#CCCCC#N)(O[C@H](c1ccccc1)c1cn(Cc2ccccc2)nn1)C(C)C"
Reply: -0.321

Ask: State its composite z-score on Calmodulin-1 (Homo sapiens): CCCCCN1CC=CC23O[C@@H]4C=CCCOC(=O)C4[C@H]2C(=O)N(CCCCCCO)[C@@H]3C1=O (some centres not stated)
Reply: -0.711
